Tested on: Botulinum neurotoxin type F light chain protease (Clostridium botulinum)
Assay: Botulinum neurotoxin type F light chain protease inhibition, multiplex microsphere flow cytometry, validation set (AID 588459)
Settings: multiplex microsphere protease substrate cleavage assay, at 10 µM, active compounds read high
measurement.label: inhibition (%)
# number only, unit % dropped from output

> print(dat)
                                   compound  unit.of.measurement  reported
1  O=c1[nH]c2ccccc2n1C1CCN(CCCC(c2ccc(F)cc2)c2ccc(F)cc2)CC1                    %      -2.3
2  CC(=O)OC(C)C[N+](C)(C)C (stereo not given)                    %       0.7
3        CCN(CC)CCOC(=O)C(c1ccccc1)c1ccccc1                    %       1.8
4                 O=C(Oc1cccccc1=O)c1ccccc1                    %       1.1
5  C[C@@H]1C[C@H]2[C@@H]3CCC4=CC(=O)C=C[C@]4(C)[C@@]3(F)[C@@H](O)C[C@]2(C)[C@H]1C(=O)CO                    %       0.3
6  Cc1cccc(-c2ncc(CN3CCN(CC(C)C)C(CCO)C3)cn2)c1 (stereo not given)                    %       2.6

Which inhibition value belongs to Clc1cc(-c2ccc(/C=N/n3cnnc3)o2)ccc1Br ?
-3.6

Which inhibition value belongs to CS(=O)(=O)Nc1cccc(C(=O)CC2(O)C(=O)Nc3ccc(Br)cc32)c1 (stereo not given) ?
3.1

Which inhibition value belongs to COc1ccccc1N=CC1=C(O)CC(c2ccccc2)CC1=O (stereo not given) ?
0.8

Which inhibition value belongs to COc1cccc(C2CC(=O)C3=C(C2)Nc2ccccc2N(C(=O)CCC(=O)O)C3c2ccc(F)cc2)c1 (stereo not given) ?
1.3
